# System: HL-60(TB)
# experiment: NCI 60 cell line panel (SRB), HL-60(TB)
# Format: cell-based
# condition context: Homo sapiens, Leukemia, single dose of 10 μM, read-out: Cell Growth Percent
Overview of recorded activity at 10 µM for various molecules
measurement type: activity at 10 µM (%)

{"molecule": "CCOC(=O)c1c(C)oc2ncnc(Nc3ccc(C(=O)Nc4ccc(OC)cc4)cc3)c12 [Compound 14b]", "system under test": "HL-60(TB)", "result": 88.6}
{"molecule": "Cc1cccc(NC(=O)Nc2ccc(Oc3ncnc4sc5c(c34)CCCC5)cc2)c1 [Compound 21b]", "system under test": "HL-60(TB)", "result": 98.4}
{"molecule": "O=C(Nc1ccccc1)Nc1ccc(Oc2ncnc3sc4c(c23)CCCC4)cc1 [Compound 21a]", "system under test": "HL-60(TB)", "result": 102}
{"molecule": "O=C(Nc1ccc(Cl)cc1)Nc1ccc(Oc2ncnc3sc4c(c23)CCCC4)cc1 [Compound 21d]", "system under test": "HL-60(TB)", "result": 100}

----------
# Test system: CAKI-1
# experiment: NCI 60 cell line panel (SRB), CAKI-1
# Assay type: cell-based
# condition context: Homo sapiens; CAKI-1, Renal Cancer; single dose of 10 μM; read-out: Cell Growth Percent
Overview of recorded activity at 10 µM for various molecules

{"molecule": "CCOC(=O)c1c(C)oc2ncnc(Nc3ccc(C(=O)Nc4cccc(Cl)c4)cc3)c12 [Compound 14a]", "system under test": "CAKI-1", "activity at 10 µM [%]": 99.2}
{"molecule": "O=C(Nc1ccccc1)Nc1ccc(Nc2ncnc3sc4c(c23)CCCC4)cc1 [Compound 20a]", "system under test": "CAKI-1", "activity at 10 µM [%]": 100}
{"molecule": "Cc1cccc(NC(=O)Nc2ccc(Oc3ncnc4sc5c(c34)CCCC5)cc2)c1 [Compound 21b]", "system under test": "CAKI-1", "activity at 10 µM [%]": 86}
{"molecule": "O=C(Nc1ccc(Cl)cc1)Nc1ccc(Oc2ncnc3sc4c(c23)CCCC4)cc1 [Compound 21d]", "system under test": "CAKI-1", "activity at 10 µM [%]": 95.4}

----------
# Test system: SK-MEL-5
# experiment: NCI 60 cell line panel (SRB), SK-MEL-5
# Assay type: cell-based
# condition context: Homo sapiens; SK-MEL-5, Melanoma; single dose of 10 μM; read-out: Cell Growth Percent

{"compound": "Cc1cccc(NC(=O)Nc2ccc(Oc3ncnc4sc5c(c34)CCCC5)cc2)c1 [Compound 21b]", "units text": "%", "activity at 10 µM": 72.9}
{"compound": "O=C(Nc1ccccc1)Nc1ccc(Nc2ncnc3sc4c(c23)CCCC4)cc1 [Compound 20a]", "units text": "%", "activity at 10 µM": 97.3}
{"compound": "CCOC(=O)c1c(C)oc2ncnc(Nc3ccc(NC(=O)Nc4ccc(CC)cc4)cc3)c12 [Compound 15i]", "units text": "%", "activity at 10 µM": 93.7}
{"compound": "COc1cccc(NC(=O)Nc2ccc(Oc3ncnc4sc5c(c34)CCCC5)cc2)c1 [Compound 21c]", "units text": "%", "activity at 10 µM": 63.6}

----------
Overview of recorded activity at 10 µM for various molecules
# System: NCI-H460
# experiment: NCI 60 cell line panel (SRB), NCI-H460
# Type: cell-based
# condition context: Homo sapiens; NCI-H460, Non-Small Cell Lung Cancer; single dose of 10 μM; read-out: Cell Growth Percent
measurement type: activity at 10 µM (%)

{"molecule": "CCOC(=O)c1c(C)oc2ncnc(Nc3ccc(C(=O)NCCc4ccccc4)cc3)c12 [Compound 14e]", "system under test": "NCI-H460", "result": 82.9}
{"molecule": "CCOC(=O)c1c(C)oc2ncnc(Nc3ccc(C(=O)Nc4cccc(Cl)c4)cc3)c12 [Compound 14a]", "system under test": "NCI-H460", "result": 100}
{"molecule": "CCOC(=O)c1c(C)oc2ncnc(Nc3ccc(NC(=O)Nc4ccc(CC)cc4)cc3)c12 [Compound 15i]", "system under test": "NCI-H460", "result": 106}
{"molecule": "Cc1cccc(NC(=O)Nc2ccc(Oc3ncnc4sc5c(c34)CCCC5)cc2)c1 [Compound 21b]", "system under test": "NCI-H460", "result": 65.2}
{"molecule": "CCOC(=O)c1c(C)oc2ncnc(Nc3ccc(NC(=O)Nc4cccc(Cl)c4)cc3)c12 [Compound 15d]", "system under test": "NCI-H460", "result": 67.1}
{"molecule": "O=C(Nc1ccccc1)Nc1ccc(Nc2ncnc3sc4c(c23)CCCC4)cc1 [Compound 20a]", "system under test": "NCI-H460", "result": 104}
{"molecule": "O=C(Nc1ccccc1)Nc1ccc(Oc2ncnc3sc4c(c23)CCCC4)cc1 [Compound 21a]", "system under test": "NCI-H460", "result": 70.7}
{"molecule": "O=C(Nc1ccc(Nc2ncnc3sc4c(c23)CCCC4)cc1)Nc1cccc(Cl)c1 [Compound 20d]", "system under test": "NCI-H460", "result": 110}

----------
Overview of recorded inhibition at 10 µM for various compounds
# system under test: VEGFR-2 (KDR) (Homo sapiens, UniProt P35968)
# Construct: purchased BPS Bioscience 40301
# Sequence (P35968 20-1356): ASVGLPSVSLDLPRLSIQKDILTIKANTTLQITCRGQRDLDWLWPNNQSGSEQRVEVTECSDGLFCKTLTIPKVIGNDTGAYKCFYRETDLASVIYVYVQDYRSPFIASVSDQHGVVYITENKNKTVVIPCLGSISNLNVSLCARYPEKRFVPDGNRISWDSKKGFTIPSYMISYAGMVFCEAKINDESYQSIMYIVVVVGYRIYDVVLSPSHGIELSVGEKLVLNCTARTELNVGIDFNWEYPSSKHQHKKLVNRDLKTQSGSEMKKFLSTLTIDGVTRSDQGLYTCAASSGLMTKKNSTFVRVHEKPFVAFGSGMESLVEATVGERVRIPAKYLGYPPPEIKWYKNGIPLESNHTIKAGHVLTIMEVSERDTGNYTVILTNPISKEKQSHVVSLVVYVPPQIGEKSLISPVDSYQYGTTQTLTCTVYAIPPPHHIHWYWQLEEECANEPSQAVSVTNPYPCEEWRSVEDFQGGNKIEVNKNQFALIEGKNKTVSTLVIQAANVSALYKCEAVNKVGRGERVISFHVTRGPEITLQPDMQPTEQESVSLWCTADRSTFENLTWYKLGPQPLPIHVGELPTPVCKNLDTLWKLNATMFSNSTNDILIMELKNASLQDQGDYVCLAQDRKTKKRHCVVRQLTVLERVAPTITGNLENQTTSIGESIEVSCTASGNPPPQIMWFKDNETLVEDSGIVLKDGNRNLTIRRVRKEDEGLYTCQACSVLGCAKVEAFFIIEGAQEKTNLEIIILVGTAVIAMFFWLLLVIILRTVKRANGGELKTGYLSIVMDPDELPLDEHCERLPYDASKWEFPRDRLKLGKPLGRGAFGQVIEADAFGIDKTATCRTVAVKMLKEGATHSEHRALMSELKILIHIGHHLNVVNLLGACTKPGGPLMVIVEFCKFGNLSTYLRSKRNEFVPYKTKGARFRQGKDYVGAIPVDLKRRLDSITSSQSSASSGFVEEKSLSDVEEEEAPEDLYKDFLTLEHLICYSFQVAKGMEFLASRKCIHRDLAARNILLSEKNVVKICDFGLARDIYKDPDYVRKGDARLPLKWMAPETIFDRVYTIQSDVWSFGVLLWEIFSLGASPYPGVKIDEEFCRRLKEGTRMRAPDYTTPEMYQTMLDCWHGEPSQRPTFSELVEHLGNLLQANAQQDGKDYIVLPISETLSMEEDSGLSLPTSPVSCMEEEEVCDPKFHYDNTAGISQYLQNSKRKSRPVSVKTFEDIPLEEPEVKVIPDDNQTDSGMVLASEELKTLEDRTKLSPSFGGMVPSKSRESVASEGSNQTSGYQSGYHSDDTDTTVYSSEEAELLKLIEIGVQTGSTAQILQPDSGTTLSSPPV
# experiment: In vitro VEGFR-2 tyrosine kinase activity (Kinase-Glo Plus luminescence, BPS Bioscience)
# Type: biochemical
# condition context: single dose concentration of 10 μM

{"compound": "CC(=O)c1cccc(NC(=O)Nc2ccc(Nc3ncnc4sc5c(c34)CCCC5)cc2)c1 [Compound 20g]", "units text": "%", "qualifier operator": ">", "inhibition at 10 µM": 70}
{"compound": "O=C(Nc1ccccc1)Nc1ccc(Oc2ncnc3sc4c(c23)CCCC4)cc1 [Compound 21a]", "units text": "%", "qualifier operator": ">", "inhibition at 10 µM": 70}
{"compound": "O=C(Nc1ccc(Cl)cc1)Nc1ccc(Oc2ncnc3sc4c(c23)CCCC4)cc1 [Compound 21d]", "units text": "%", "qualifier operator": "=", "inhibition at 10 µM": 46}
{"compound": "O=C(Nc1ccc(Nc2ncnc3sc4c(c23)CCCC4)cc1)Nc1cccc(Cl)c1 [Compound 20d]", "units text": "%", "qualifier operator": "=", "inhibition at 10 µM": 19}

----------
# Tested on: NCI-H460
# experiment: NCI 60 cell line panel (SRB), NCI-H460
# Type: cell-based
# condition context: Homo sapiens; NCI-H460, Non-Small Cell Lung Cancer; single dose of 10 μM; read-out: Cell Growth Percent
measurement type: activity at 10 µM (%)

{"compound": "O=C(Nc1ccc(Cl)cc1)Nc1ccc(Oc2ncnc3sc4c(c23)CCCC4)cc1 [Compound 21d]", "measurement type": "activity at 10 µM", "result": 82.1}
{"compound": "CCOC(=O)c1c(C)oc2ncnc(Nc3ccc(C(=O)Nc4ccc(OC)cc4)cc3)c12 [Compound 14b]", "measurement type": "activity at 10 µM", "result": 97}
{"compound": "COc1cccc(NC(=O)Nc2ccc(Oc3ncnc4sc5c(c34)CCCC5)cc2)c1 [Compound 21c]", "measurement type": "activity at 10 µM", "result": 65.7}
{"compound": "COc1cccc(NC(=O)Nc2ccc(Nc3ncnc4sc5c(c34)CCCC5)cc2)c1 [Compound 20c]", "measurement type": "activity at 10 µM", "result": 106}

----------
# Test system: SN12C
# experiment: NCI 60 cell line panel (SRB), SN12C
# Assay type: cell-based
# condition context: Homo sapiens, Renal Cancer, single dose of 10 μM, read-out: Cell Growth Percent
measurement type: activity at 10 µM

{"compound": "O=C(Nc1ccc(Cl)cc1)Nc1ccc(Oc2ncnc3sc4c(c23)CCCC4)cc1 [Compound 21d]", "system under test": "SN12C", "measurement type": "activity at 10 µM", "result": "86.5%"}
{"compound": "CCOC(=O)c1c(C)oc2ncnc(Nc3ccc(C(=O)NCCc4ccccc4)cc3)c12 [Compound 14e]", "system under test": "SN12C", "measurement type": "activity at 10 µM", "result": "99.3%"}
{"compound": "Cc1cccc(NC(=O)Nc2ccc(Oc3ncnc4sc5c(c34)CCCC5)cc2)c1 [Compound 21b]", "system under test": "SN12C", "measurement type": "activity at 10 µM", "result": "75.9%"}
{"compound": "COc1cccc(NC(=O)Nc2ccc(Oc3ncnc4sc5c(c34)CCCC5)cc2)c1 [Compound 21c]", "system under test": "SN12C", "measurement type": "activity at 10 µM", "result": "78.2%"}

----------
# System: SR
# experiment: NCI 60 cell line panel (SRB), SR
# Assay type: cell-based
# condition context: Homo sapiens, Leukemia, single dose of 10 μM, read-out: Cell Growth Percent
Overview of recorded activity at 10 µM for various molecules

{"molecule": "O=C(Nc1ccc(Nc2ncnc3sc4c(c23)CCCC4)cc1)Nc1cccc(Cl)c1 [Compound 20d]", "activity at 10 µM": "102%"}
{"molecule": "COc1cccc(NC(=O)Nc2ccc(Oc3ncnc4sc5c(c34)CCCC5)cc2)c1 [Compound 21c]", "activity at 10 µM": "50.9%"}
{"molecule": "O=C(Nc1ccc(Cl)cc1)Nc1ccc(Oc2ncnc3sc4c(c23)CCCC4)cc1 [Compound 21d]", "activity at 10 µM": "72.4%"}
{"molecule": "CCOC(=O)c1c(C)oc2ncnc(Nc3ccc(C(=O)Nc4cccc(Cl)c4)cc3)c12 [Compound 14a]", "activity at 10 µM": "74.8%"}
{"molecule": "Cc1cccc(NC(=O)Nc2ccc(Oc3ncnc4sc5c(c34)CCCC5)cc2)c1 [Compound 21b]", "activity at 10 µM": "55.8%"}
{"molecule": "CCOC(=O)c1c(C)oc2ncnc(Nc3ccc(C(=O)Nc4ccc(OC)cc4)cc3)c12 [Compound 14b]", "activity at 10 µM": "74.6%"}
{"molecule": "O=C(Nc1ccccc1)Nc1ccc(Oc2ncnc3sc4c(c23)CCCC4)cc1 [Compound 21a]", "activity at 10 µM": "24.3%"}
{"molecule": "CCOC(=O)c1c(C)oc2ncnc(Nc3ccc(NC(=O)Nc4ccc(CC)cc4)cc3)c12 [Compound 15i]", "activity at 10 µM": "81.6%"}
{"molecule": "COc1cccc(NC(=O)Nc2ccc(Nc3ncnc4sc5c(c34)CCCC5)cc2)c1 [Compound 20c]", "activity at 10 µM": "84.6%"}
{"molecule": "O=C(Nc1ccccc1)Nc1ccc(Nc2ncnc3sc4c(c23)CCCC4)cc1 [Compound 20a]", "activity at 10 µM": "97.8%"}
{"molecule": "CCOC(=O)c1c(C)oc2ncnc(Nc3ccc(NC(=O)Nc4cccc(Cl)c4)cc3)c12 [Compound 15d]", "activity at 10 µM": "53.6%"}
{"molecule": "CCOC(=O)c1c(C)oc2ncnc(Nc3ccc(C(=O)NCCc4ccccc4)cc3)c12 [Compound 14e]", "activity at 10 µM": "89.2%"}
